Provide the reported ED50 (dose producing 50% of ovulation) of each item.
# studyTarget: LH-RH receptors (Rattus norvegicus, UniProt P30969)
# Construct: from tissue; host or cells: rat pituitary membrane fraction (female Sprague Dawley)
# protocolDescription: Induction of ovulation in pentobarbital-blocked female Wistar rats
# Type: in vivo
# conditionSet: subcutaneous
State just the number; it will be interpreted in nanograms/rat.

Please state recorded ED50 (dose producing 50% of ovulation) (tested on LH-RH receptors (Rattus norvegicus, UniProt P30969)) of CC(C)C[C@H](NC(=O)[C@@H](COC(C)(C)C)NC(=O)[C@H](Cc1ccc(O)cc1)NC(=O)[C@H](CO)NC(=O)[C@H](Cc1c[nH]c2ccccc12)NC(=O)[C@H](Cc1cnc[nH]1)NC(=O)[C@@H]1CCC(=O)N1)C(=O)N[C@@H](CCCNC(=N)N)C(=O)N1CCC[C@H]1C(=O)NNC(N)=O
4.3

Param item: CC(C)C[C@H](NC(=O)[C@@H](Cc1c[nH]c2ccccc12)NC(=O)[C@H](Cc1ccc(O)cc1)NC(=O)[C@H](CO)NC(=O)[C@H](Cc1c[nH]c2ccccc12)NC(=O)[C@H](Cc1c[nH]cn1)NC(=O)[C@@H]1CCC(=O)N1)C(=O)N[C@@H](CCCNC(=N)N)C(=O)N1CCC[C@H]1C(=O)NCC(N)=O
2.9

Param item: CCNC(=O)[C@@H]1CCCN1C(=O)[C@H](CCCNC(=N)N)NC(=O)[C@H](CC(C)C)NC(=O)[C@@H](CC(C)C)NC(=O)[C@H](Cc1ccc(O)cc1)NC(=O)[C@H](CO)NC(=O)[C@H](Cc1c[nH]c2ccccc12)NC(=O)[C@H](Cc1c[nH]cn1)NC(=O)[C@@H]1CCC(=O)N1
1.9

Param item: CC(C)C[C@H](NC(=O)CNC(=O)[C@H](Cc1ccc(O)cc1)NC(=O)[C@H](CO)NC(=O)[C@H](Cc1c[nH]c2ccccc12)NC(=O)[C@H](Cc1c[nH]cn1)NC(=O)[C@@H]1CCC(=O)N1)C(=O)N[C@@H](CCCNC(=N)N)C(=O)N1CCC[C@H]1C(=O)NCC(N)=O
15

Param item: CCNC(=O)[C@@H]1CCCN1C(=O)[C@H](CCCN=C(N)N)NC(=O)[C@H](CC(C)C)NC(=O)[C@@H](Cc1c[nH]c2ccccc12)NC(=O)[C@H](Cc1ccc(O)cc1)NC(=O)[C@H](CO)NC(=O)[C@H](Cc1c[nH]c2ccccc12)NC(=O)[C@H](Cc1cnc[nH]1)NC(=O)[C@@H]1CCC(=O)N1
4.8

---

# studyTarget: LH-RH receptors (Rattus norvegicus)
# Construct: from tissue; host or cells: rat pituitary membrane fraction (female Sprague Dawley)
# Sequence (P30969 1-327): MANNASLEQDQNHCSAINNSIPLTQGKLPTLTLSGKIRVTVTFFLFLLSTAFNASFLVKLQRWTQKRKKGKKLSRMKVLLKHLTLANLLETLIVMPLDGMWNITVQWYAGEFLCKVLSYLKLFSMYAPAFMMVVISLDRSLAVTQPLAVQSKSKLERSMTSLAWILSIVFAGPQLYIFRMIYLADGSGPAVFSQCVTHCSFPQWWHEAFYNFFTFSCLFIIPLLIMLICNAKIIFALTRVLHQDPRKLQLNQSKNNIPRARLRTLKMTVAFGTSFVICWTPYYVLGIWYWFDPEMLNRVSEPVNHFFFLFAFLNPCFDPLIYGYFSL
# protocolDescription: Affinity for LH-RH receptors: [125I]-buserelin binding to rat pituitary membranes
# conditionSet: 2 hours at 4° C., 20 to 70 μM [125I]-buserelin, Ki from IC50 by Cheng-Prusoff, read-out: pKi (affinity for LH-RH receptors) (converted)
Provide the reported Ki of each item.

Return reported Ki; argument: CC(=O)N[C@H](Cc1ccc2ccccc2c1)C(=O)N[C@H](Cc1ccc(Cl)cc1)C(=O)N[C@H](Cc1csc2ccccc12)C(=O)N[C@@H](CO)C(=O)N[C@@H](Cc1ccc(O)cc1)C(=O)N1CCC[C@@]12CCN([C@@H](CC(C)C)C(=O)N[C@@H](CCCNC(=N)N)C(=O)N1CCC[C@H]1C(=O)N[C@H](C)C(N)=O)C2=O
0.251 nM

Param item: CC(=O)N[C@H](Cc1ccc2ccccc2c1)C(=O)N[C@H](Cc1ccc(Cl)cc1)C(=O)N[C@H](Cc1c[nH]c2ccccc12)C(=O)N[C@@H](CO)C(=O)N[C@@H](Cc1ccc(O)cc1)C(=O)N1CCC[C@@]12CCN([C@@H](CC(C)C)C(=O)N[C@@H](CCCNC(=N)N)C(=O)N1CCC[C@H]1C(=O)N[C@H](C)C(N)=O)C2=O
0.891 nM

Param item: CCNC(=O)[C@@H]1CCCN1C(=O)[C@H](CCCNC(=N)N)NC(=O)[C@H](CC(C)C)N1CC[C@@]2(CCCN2C(=O)[C@H](Cc2ccc(O)cc2)NC(=O)[C@H](CO)NC(=O)[C@H](Cc2ccc3ccccc3c2)NC(=O)[C@H](Cc2c[nH]cn2)NC(=O)CN(C)C(C)=O)C1=O
1.05 nM

Param item: CCNC(=O)[C@@H]1CCCN1C(=O)[C@H](CCCNC(=N)N)NC(=O)[C@H](CCC(C)C)N1CC[C@@]2(CCCN2C(=O)[C@H](Cc2ccc(O)cc2)NC(=O)[C@H](CO)NC(=O)[C@H](Cc2c[nH]c3ccccc23)NC(=O)[C@H](Cc2c[nH]cn2)NC(=O)[C@@H]2CCC(=O)N2)C1=O
2.29 nM

Param item: CCNC(=O)[C@@H]1CCCN1C(=O)[C@H](CCCNC(=N)N)NC(=O)[C@H](CC(C)C)N1CC[C@@]2(CCCN2C(=O)[C@H](Cc2ccc(O)cc2)NC(=O)[C@H](CO)NC(=O)[C@H](Cc2ccc3ccccc3c2)NC(=O)[C@H](Cc2c[nH]cn2)NC(=O)[C@@H]2CCC(=O)N2)C1=O
0.105 nM
